Recorded values, source the supplement of paper PMC11208160.

# assay.protocol: recombinant barcode read abundance after kanamycin selection (control-corrected) (log10(CPM+1)); higher = more efficient recombination; sequences stand for … in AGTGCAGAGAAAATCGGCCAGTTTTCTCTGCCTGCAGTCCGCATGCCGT…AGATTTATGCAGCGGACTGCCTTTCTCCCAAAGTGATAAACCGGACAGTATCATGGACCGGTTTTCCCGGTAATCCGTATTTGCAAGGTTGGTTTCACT; site = the 11-nt target;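 also: IS621 recombinase and bridge RNA in Escherichia coli cells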
readout.kind: recombinant barcode read abundance (log10)
API doc: respond with a numeric literal and nothing else, no unit.

Here are 10 sequences together with their reported answers.
{"columns": ["sequence.data", "observed"],
 "data": [
  ["CACACGGCTTGGGTTCTAACCTGTTGCCT (site CACACCGCTAG)", 0.246],
  ["CAATATCCTTGGGTTCTAACCTGTTGCCT (site CATTATCCTAG)", 0.0807],
  ["CAATTACCTTGGGTTCTAACCTGTTGCTT (site CAATTACCTAA)", 0.682],
  ["AGGCCCGCTTGGGTTCTAACCTGTTGCGG (site GTAAGATCTGT)", 0.186],
  ["CATCCTCCTTGGGTTCTAACCTGTTGCTT (site CAGCCTTCTAA)", 0.103],
  ["ATCTTGTCTTGGGTTCTAACCTGTTGCCT (site ATCTTGTCTCG)", 0.0162],
  ["CTATATGCTTGGGTTCTAACCTGTTGCTT (site CTATATGCTAA)", 0.613],
  ["TAACTTACTTGGGTTCTAACCTGTTGCAT (site TAACGTACTAT)", 0.0567],
  ["AGGCGTCCTTGGGTTCTAACCTGTTGCCC (site AGGCGTCCTTG)", 0.211],
  ["AATGGGGCTTGGGTTCTAACCTGTTGCCT (site AATGGGCCTAG)", 0.189]
]}

For record ACGCGAGCTTGGGTTCTAACCTGTTGCTG (site ACGCGAGCTCT) the listed recombinant barcode read abundance (log10) is 0.187

recombinant barcode read abundance (log10) for TAGGATACTTGGGTTCTAACCTGTTGCAA (site TAGGATACTAT) is 0.0732

Record summary for GACCACCCTTGGGTTCTAACCTGTTGCGG (site ATCCACCCTCC) : reported recombinant barcode read abundance (log10) = 1.14

Lab note: TTGGGAGCTTGGGTTCTAACCTGTTGCCT (site TTGGGAGCTAG) gave recombinant barcode read abundance (log10) of 2.26
